Origin of measurements: PubChem BioAssay (Tox21)

# Protocol: qHTS assay to identify small molecule agonists of the retinoic acid receptor (RAR) signaling pathway (AID 1159553); for activation: % is set by controls: 0 for no effect and ±100 for the full control effect
# Experimental Conditions: C3RL4 RARE luciferase reporter, agonist, 6 h; series mostly up to 73.3 µM
Records with an inconclusive call do not appear. The source made the active and inactive calls. Calls come from the whole dose curve; as a rule, active = well fitted activation curve with a large enough effect in the repeat runs; inconclusive = weak or mixed curves, or effect the other way; inactive = no such curve, though single readings can be large or run the other way.
Outcome codes: active, inactive

# Compound, Assigned Class
measured = [
    ("CC(O)CCl (stereo not given)", "inactive"),
    ("Cn1c(CCCC(=O)O)nc2cc(N(CCCl)CCCl)ccc21", "inactive"),
    ("COc1cc(CCN)cc(OC)c1OC", "inactive"),
    ("COC[C@@H](NC(C)=O)C(=O)NCc1ccccc1", "inactive"),
    ("Cc1ccc(Cl)c(O)c1", "inactive"),
    ("CCc1ccc(C2CCNCC2)cc1", "inactive"),
    ("CCOC(=O)N(C)N=O", "inactive"),
    ("Cc1ccc2cc(C)ccc2c1", "inactive"),
    ("CCCC[N+](=O)[O-]", "inactive"),
    ("CCCCS(=O)(=O)Cl", "inactive"),
    ("OCC(Cl)CCl (stereo not given)", "inactive"),
    ("Oc1ccc2c3c1O[C@H]1[C@@H](O)C=C[C@H]4[C@@H](C2)NCC[C@@]341", "inactive"),
    ("COc1ccccc1OC", "inactive"),
    ("Cc1ccc(-c2nc3ccc(C)cn3c2CC(=O)N(C)C)cc1", "active"),
    ("C1CN2CCC1CC2", "inactive"),
]

---

# Protocol: A CellTox Green Cytotoxicity Assay to monitor cytotoxicity in HepG2 cells - 0 hour (AID 1224882); note: % is set by controls: 0 for no effect and ±100 for the full control effect; nearly all actives have a fitted effect of over 35% in size
# Experimental Conditions: CellTox Green fluorescence; series mostly up to 76.8 µM
Active and inactive are the calls of the source. Calls come from the whole dose curve; as a rule, active = well fitted activation curve with a large enough effect in the repeat runs; inconclusive = weak or mixed curves; inactive = flat fitted curve, though single readings scatter.
Recorded Endpoint: cytotoxicity

# Compound, Result
measured = [
    ("CCN[C@H](C)Cc1cccc(C(F)(F)F)c1", "inactive"),
    ("CCN[C@@H](C)Cc1ccccc1", "inactive"),
    ("Cn1c(N)nc2c3cccnc3ccc21", "inactive"),
    ("CCN(CCO)CCO", "inactive"),
    ("NC(=O)CS(=O)C(c1ccccc1)c1ccccc1 (stereo not drawn)", "inactive"),
    ("CCOC(=O)C(SP(=S)(OC)OC)c1ccccc1 (stereo not drawn)", "inactive"),
    ("Nc1c(Cl)c(F)nc(OCC(=O)O)c1Cl", "inactive"),
    ("Cc1ccc(-c2nc3ccc(C)cn3c2CC(=O)N(C)C)cc1", "inactive"),
    ("ClC(Cl)(Cl)Cl", "inactive"),
    ("CCOC(=O)CC(SP(=S)(OC)OC)C(=O)OCC (stereo not drawn)", "inactive"),
    ("N[C@@H]1C[C@H]1c1ccccc1", "inactive"),
    ("CCCCCCCCSC(=O)Oc1cc(Cl)nnc1-c1ccccc1", "inactive"),
    ("CCN[C@@H](C)Cc1cccc(C(F)(F)F)c1", "inactive"),
    ("CCOP(=O)(CN(CCO)CCO)OCC", "inactive"),
    ("COc1ccc2c(C(=O)c3ccc(Cl)cc3)c(C)n(CC(=O)O)c2c1", "inactive"),
    ("CC(C)(O)C(Cl)(Cl)Cl", "inactive"),
    ("O=C(Cl)c1ccccc1", "inactive"),
    ("C=C(Cl)CSC(=S)N(CC)CC", "inactive"),
    ("O=C1C2CC=CCC2C(=O)N1SC(Cl)(Cl)Cl (stereo not drawn)", "inactive"),
    ("OP(O)c1ccccc1", "inactive"),
    ("CNC(=O)Oc1cc(C)c(N(C)C)c(C)c1", "inactive"),
    ("Cl/C=C/CCl", "inactive"),
    ("CCCCCCCC(=O)Cl", "inactive"),
    ("CCOP(=S)(OCC)SCCl", "inactive"),
    ("Cc1ccc2c(c1)C1CN(C)CCC1N2 (stereo not drawn)", "-0.534% [at 15.8 µM] (inactive)"),
    ("O=C(Cl)C(Cl)(Cl)Cl", "inactive"),
    ("CN(C)CCN(C)C", "inactive"),
    ("COc1cc(CCN)cc(OC)c1OC", "inactive"),
    ("C=C(Cl)CCl", "inactive"),
    ("NCCOS(=O)(=O)O", "inactive"),
    ("CCNc1nc(Cl)nc(NC(C)(C)C)n1", "inactive"),
    ("NNC(N)=O", "inactive"),
    ("S=C=S", "inactive"),
    ("CC(C)(C1CCC(O)CC1)C1CCC(O)CC1 (stereo not drawn)", "inactive"),
    ("N#CC(Br)(Br)C(N)=O", "inactive"),
    ("CCC1(c2ccccc2)C(=O)N(COC)C(=O)N(COC)C1=O", "inactive"),
    ("C=CCN1CC[C@]23CCCC[C@H]2[C@H]1Cc1ccc(O)cc13", "inactive"),
    ("CC(C)(C)C(=O)Cl", "inactive"),
    ("COP(=O)(OC)O/C(C)=C/C(=O)N(C)C", "inactive"),
    ("O=C(NC(O)C(Cl)(Cl)Cl)NC(O)C(Cl)(Cl)Cl (stereo not drawn)", "inactive"),
    ("COC(=O)c1ccccc1CS(=O)(=O)NC(=O)Nc1nc(OC)cc(OC)n1", "inactive"),
    ("CC[C@H](O)C(C[C@H](C)N(C)C)(c1ccccc1)c1ccccc1", "inactive"),
    ("O=C(Cl)/C=C/C(=O)Cl", "inactive"),
    ("CCOc1cc(OP(=S)(OC)OC)nc(CC)n1", "inactive"),
    ("CC[C@@H](CO)NC(=O)[C@@H]1C=C2c3cccc4[nH]cc(c34)C[C@H]2N(C)C1", "inactive"),
    ("CCC(=O)OC1(c2ccccc2)CCN(C)CC1", "inactive"),
    ("O=C(O)CBr", "inactive"),
    ("[P]#[In]", "inactive"),
    ("CCCC(C)(COC(N)=O)COC(N)=O", "inactive"),
    ("CS(=O)(=O)Cl", "inactive"),
    ("COP(=O)(O)OC", "inactive"),
    ("COc1cc(CC(C)N)cc(OC)c1OC (stereo not drawn)", "inactive"),
    ("C1CN2CCC1CC2", "inactive"),
    ("CCC1(c2cccc(O)c2)CCCCN(C)C1 (stereo not drawn)", "inactive"),
    ("[O-][Br+2]([O-])O", "inactive"),
    ("CC(C)N(Cc1ccccc1)C(=O)C(C)(C)C", "inactive"),
    ("NNCc1ccccc1", "inactive"),
    ("O=C1CCCCC1Cl (stereo not drawn)", "inactive"),
    ("CNC(=O)NC(O)C(Cl)(Cl)Cl (stereo not drawn)", "inactive"),
    ("O=c1[nH]c2ccccc2o1", "inactive"),
    ("ClCCCCl", "inactive"),
    ("NC1(c2ccccc2)CCCCC1", "inactive"),
    ("COc1ccc(C=O)cc1O", "inactive"),
]
